I'd appreciate it if you could supply Max Load amine g/L values for the items below.
- Assay procedure: Maximum loading of herbicide amine salt in water (Karl-Fischer water content, HCl titration of amine)
- Assay type: physicochemical
- Details: dicamba amine salts; amine in maximum loaded solution in water
- Description: Neutralizing acidic herbicides (e.g., 2,4-D, dicamba, glyphosate, glufosinate) with amines can result in the formation of highly water soluble salts. […] At step 109, theoretical neutralization has taken place. The salt concentration can be quantified by titration. […] After re-equilibrium during at least 12 hours of shaking, and under the condition that two phases are still present, the salt concentration is determined again. […] The g amine/L reported below was calculated using the following equation: […]
Numeric only. Scale: amine g/L

Lookup result for CN(C)CCO.COc1c(Cl)ccc(Cl)c1C(=O)O [Dicamba DMAE salt] ; measured Max Load amine g/L: 408.3

Lookup result for CNC.COc1c(Cl)ccc(Cl)c1C(=O)O [Dicamba DMA salt, reference compound] ; measured Max Load amine g/L: 211.1

Lookup result for COc1c(Cl)ccc(Cl)c1C(=O)O.NCCOCCO [Dicamba DGA salt, reference compound] ; measured Max Load amine g/L: 435.5

Lookup result for CC(C)CN.COc1c(Cl)ccc(Cl)c1C(=O)O [Dicamba MIBA salt] ; measured Max Load amine g/L: 475.0

Lookup result for CNCCO.COc1c(Cl)ccc(Cl)c1C(=O)O [Dicamba MMEA salt] ; measured Max Load amine g/L: 357.7

Lookup result for CC(N)CN.COc1c(Cl)ccc(Cl)c1C(=O)O.COc1c(Cl)ccc(Cl)c1C(=O)O [Dicamba 1,2-DAP salt] ; measured Max Load amine g/L: 365.9

Lookup result for COc1c(Cl)ccc(Cl)c1C(=O)[O-].C[N+](C)(C)CCO [Dicamba Cbase salt] ; measured Max Load amine g/L: 308.5

====

- Assay procedure: Viscosity of max load amine salt solutions (Brookfield viscometer, nr. 87 spindle)
- Type: physicochemical
- Details: 2,4-D amine salts; 20° C.
Parameter: Viscosity (mPa)
Numeric only. Scale: mPa

Lookup result for C[N+](C)(C)CCO.O=C([O-])COc1ccc(Cl)cc1Cl [2,4-D Cbase salt, reference compound] ; measured Viscosity: 12.4

Lookup result for CN(C)CCO.O=C(O)COc1ccc(Cl)cc1Cl [2,4-D DMAE salt] ; measured Viscosity: 74.0

Lookup result for CNC.O=C(O)COc1ccc(Cl)cc1Cl [2,4-D DMA salt, reference compound] ; measured Viscosity: 38.8

Lookup result for CC(C)CN.O=C(O)COc1ccc(Cl)cc1Cl [2,4-D MIBA salt] ; measured Viscosity: 60.1

Lookup result for CNCCO.O=C(O)COc1ccc(Cl)cc1Cl [2,4-D MMEA salt] ; measured Viscosity: 21.2

====

- Assay procedure: Maximum loading of herbicide amine salt in water (Karl-Fischer water content, HCl titration of amine)
- Type: physicochemical
- Details: 2,4-D amine salts; amine in maximum loaded solution in water
- Procedure: Neutralizing acidic herbicides (e.g., 2,4-D, dicamba, glyphosate, glufosinate) with amines can result in the formation of highly water soluble salts. […] At step 109, theoretical neutralization has taken place. The salt concentration can be quantified by titration. […] After re-equilibrium during at least 12 hours of shaking, and under the condition that two phases are still present, the salt concentration is determined again. […] The g amine/L reported below was calculated using the following equation: […]
Entry flag: 1.0 if Max Load amine g/L reaches 300 amine g/L; 0.0 if it does not.

Challenge: Hi team, for CC(C)CN.O=C(O)COc1ccc(Cl)cc1Cl [2,4-D MIBA salt] , is the recorded Max Load amine g/L at or above 300 amine g/L?
Response given: 0.0

Challenge: Hi team, for CNC.O=C(O)COc1ccc(Cl)cc1Cl [2,4-D DMA salt, reference compound] , is the recorded Max Load amine g/L at or above 300 amine g/L?
Response given: 0.0

Challenge: Hi team, for C[N+](C)(C)CCO.O=C([O-])COc1ccc(Cl)cc1Cl [2,4-D Cbase salt, reference compound] , is the recorded Max Load amine g/L at or above 300 amine g/L?
Response given: 1.0

Challenge: Hi team, for CN(C)CCCN.O=C(O)COc1ccc(Cl)cc1Cl [2,4-D DMAPA salt] , is the recorded Max Load amine g/L at or above 300 amine g/L?
Response given: 0.0

Challenge: Hi team, for CN(C)CCO.O=C(O)COc1ccc(Cl)cc1Cl [2,4-D DMAE salt] , is the recorded Max Load amine g/L at or above 300 amine g/L?
Response given: 1.0

====

- Assay procedure: Wetting properties: contact angle of a droplet of max load product on parafilm layer
- Format: physicochemical
- Details: dicamba amine salt concentrates; droplet on hydrophobic parafilm, read by eye
I'd appreciate it if you could supply Wetting Angle values for the items below.
Numeric only. Scale: °

Lookup result for CC(N)CN.COc1c(Cl)ccc(Cl)c1C(=O)O.COc1c(Cl)ccc(Cl)c1C(=O)O [Dicamba 1,2-DAP salt] ; measured Wetting Angle: 105

Lookup result for CNCCO.COc1c(Cl)ccc(Cl)c1C(=O)O [Dicamba MMEA salt] ; measured Wetting Angle: 120

Lookup result for COc1c(Cl)ccc(Cl)c1C(=O)[O-].C[N+](C)(C)CCO [Dicamba Cbase salt] ; measured Wetting Angle: 115

Lookup result for COc1c(Cl)ccc(Cl)c1C(=O)O.NCCOCCO [Dicamba DGA salt, reference compound] ; measured Wetting Angle: 120

Lookup result for CC(C)CN.COc1c(Cl)ccc(Cl)c1C(=O)O [Dicamba MIBA salt] ; measured Wetting Angle: 130

Lookup result for CNC.COc1c(Cl)ccc(Cl)c1C(=O)O [Dicamba DMA salt, reference compound] ; measured Wetting Angle: 135

Lookup result for CN(C)CCO.COc1c(Cl)ccc(Cl)c1C(=O)O [Dicamba DMAE salt] ; measured Wetting Angle: 115

====

- Assay procedure: Viscosity of max load amine salt solutions (Brookfield viscometer, nr. 87 spindle)
- Assay type: physicochemical
- Details: dicamba amine salt concentrates; 20° C.
Parameter: Viscosity (mPa)
Numeric only. Scale: mPa

Lookup result for CN(C)CCO.COc1c(Cl)ccc(Cl)c1C(=O)O [Dicamba DMAE salt] ; measured Viscosity: 184.4

Lookup result for CC(C)CN.COc1c(Cl)ccc(Cl)c1C(=O)O [Dicamba MIBA salt] ; measured Viscosity: 46.1

Lookup result for COc1c(Cl)ccc(Cl)c1C(=O)[O-].C[N+](C)(C)CCO [Dicamba Cbase salt] ; measured Viscosity: 13.5

Lookup result for CNC.COc1c(Cl)ccc(Cl)c1C(=O)O [Dicamba DMA salt, reference compound] ; measured Viscosity: 58.8

Lookup result for CC(N)CN.COc1c(Cl)ccc(Cl)c1C(=O)O.COc1c(Cl)ccc(Cl)c1C(=O)O [Dicamba 1,2-DAP salt] ; measured Viscosity: 218.0

Lookup result for COc1c(Cl)ccc(Cl)c1C(=O)O.NCCOCCO [Dicamba DGA salt, reference compound] ; measured Viscosity: 562.5
